FYI, the data here is from patent US20150374680A1.

# System: Her-2 in SkBr3 cells
# protocol text: Her-2 depletion in SkBr3 cells (pharmacodynamic marker of cellular efficacy)
# Assay type: cell-based
# assay setup: Homo sapiens, SK-BR-3; SkBr3 cells treated with the inhibitor overnight; read-out: PD (μM), pharmacodynamic EC50, Her-2 depletion
endpoint label: EC50

Below, each entry is followed by its recorded EC50 result.
O=C1OCCC=CCCC=CC(=NOCC(=O)N(Cc2ccccc2)Cc2ccccc2)Cc2cc(O)cc(O)c21 [Compound A1B1C4D21] : > 10 µM
CCCC1CC=CCCC(C)=CC(=NOCC(=O)N(CC)CC)Cc2c(Cl)c(O)cc(O)c2C(=O)O1 (stereo not shown) [Compound A2B3C2D18] : > 10 µM
CCN(CC)C(=O)CON=C1C=C(C)CCC=CCC(C)OC(=O)c2c(O)cc(O)cc2C1 (stereo not shown) [Compound A1B3C1D18] : ≤ 1 µM
CC1CN(C(=O)CON=C2C=CCCC=CCCOC(=O)c3c(O)cc(O)cc3C2)CC(C)O1 (stereo not shown) [Compound A1B1C4D14] : ≤ 5 µM

**Q:** Kindly indicate its recorded EC50. Item: O=C1OCCC=CCCC=CC(=NOCC(=O)N2CC=CCC2)Cc2cc(O)cc(O)c21 [Compound A1B1C4D9]
**A:** ≤ 0.5 µM

----------
# System: Her-2 in SkBr3 cells
# protocol text: Her-2 depletion in SkBr3 cells (pharmacodynamic marker of cellular efficacy)
# Format: cell-based
# assay setup: Homo sapiens, SK-BR-3; SkBr3 cells treated with the inhibitor overnight; read-out: PD (μM), pharmacodynamic EC50, Her-2 depletion
endpoint label: EC50

CCCC1CC=CCCC(C)=CC(=NOCC(=O)N2CCCCC2)Cc2cc(O)cc(O)c2C(=O)O1 (centres unmarked) : ≤ 1 µM
CCC1CCCCN1C(=O)CON=C1C=CCCC=CCCOC(=O)c2c(O)cc(O)cc2C1 (centres unmarked) : < 1 µM
O=C1OCCC=CCCC=CC(=NOCC(=O)N2CCSCC2)Cc2cc(O)cc(O)c21 : ≤ 0.5 µM
CC1C=CCCCOC(=O)c2c(O)cc(O)c(Cl)c2CC(=NOCC(=O)N2CCCCC2)C=CC1 (centres unmarked) : > 10 µM
CC1C=CCCOC(=O)c2c(O)cc(O)cc2CC(=NOCC(=O)N2CCCCC2)C=CC1 (centres unmarked) : ≤ 0.5 µM
CC1CCN(C(=O)CON=C2C=CCCC=CCCOC(=O)c3c(O)cc(O)cc3C2)CC1 : ≤ 0.5 µM
O=C(CON=C1C=CCCC=CCCOC(=O)c2c(O)cc(O)cc2C1)NCc1ccccc1 : ≤ 1 µM
C=CC1=CCCC=CC(=NOCC(=O)N2CCCCC2)Cc2c(Cl)c(O)cc(O)c2C(=O)OCC1 : ≤ 1 µM

**Q:** Kindly indicate its recorded EC50. Item: `O=C1OCCC=CCCC=CC(=NOCC(=O)N2CCOCC2)Cc2cc(O)cc(O)c21`
**A:** ≤ 0.5 µM

**Q:** Kindly indicate its recorded EC50. Item: CC1CCCN(C(=O)CON=C2C=CCCC=CCCOC(=O)c3c(O)cc(O)cc3C2)C1 (centres unmarked)
**A:** ≤ 0.1 µM

**Q:** Kindly indicate its recorded EC50. Item: `CCN(CC)C(=O)CON=C1C=CCCC=CCCOC(=O)c2c(O)cc(O)cc2C1`
**A:** ≤ 1 µM

**Q:** Kindly indicate its recorded EC50. Item: `CCCN(CCC)C(=O)CON=C1C=CCCC=CCCOC(=O)c2c(O)cc(O)cc2C1`
**A:** ≤ 1 µM

**Q:** Kindly indicate its recorded EC50. Item: `O=C1OCCC=CCCC=CC(=NOCC(=O)N2CCCC2)Cc2cc(O)cc(O)c21`
**A:** ≤ 0.5 µM

**Q:** Kindly indicate its recorded EC50. Item: CCCC1CC=CCCC=CC(=NOCC(=O)N2CCCCC2)Cc2c(Cl)c(O)cc(O)c2C(=O)O1 (centres unmarked)
**A:** ≤ 5 µM

**Q:** Kindly indicate its recorded EC50. Item: `COC(=O)CON=C1C=CCCC=CCCOC(=O)c2c(O)cc(O)cc2C1`
**A:** ≤ 10 µM

**Q:** Kindly indicate its recorded EC50. Item: CCCC1CC=CCCC(C)=CC(=NOCC(=O)N(CC)CC)Cc2cc(O)cc(O)c2C(=O)O1 (centres unmarked)
**A:** > 10 µM

**Q:** Kindly indicate its recorded EC50. Item: CC1CC=CCCC=CC(=NOCC(=O)N2CCCCC2)Cc2cc(O)cc(O)c2C(=O)O1 (centres unmarked)
**A:** ≤ 5 µM
